Each entry below carries its reported pIC50.
Target: Serine/threonine-protein kinase B-raf (Homo sapiens, UniProt P15056, V600E)
Sequence (P15056 2-766 V600E limits assumed): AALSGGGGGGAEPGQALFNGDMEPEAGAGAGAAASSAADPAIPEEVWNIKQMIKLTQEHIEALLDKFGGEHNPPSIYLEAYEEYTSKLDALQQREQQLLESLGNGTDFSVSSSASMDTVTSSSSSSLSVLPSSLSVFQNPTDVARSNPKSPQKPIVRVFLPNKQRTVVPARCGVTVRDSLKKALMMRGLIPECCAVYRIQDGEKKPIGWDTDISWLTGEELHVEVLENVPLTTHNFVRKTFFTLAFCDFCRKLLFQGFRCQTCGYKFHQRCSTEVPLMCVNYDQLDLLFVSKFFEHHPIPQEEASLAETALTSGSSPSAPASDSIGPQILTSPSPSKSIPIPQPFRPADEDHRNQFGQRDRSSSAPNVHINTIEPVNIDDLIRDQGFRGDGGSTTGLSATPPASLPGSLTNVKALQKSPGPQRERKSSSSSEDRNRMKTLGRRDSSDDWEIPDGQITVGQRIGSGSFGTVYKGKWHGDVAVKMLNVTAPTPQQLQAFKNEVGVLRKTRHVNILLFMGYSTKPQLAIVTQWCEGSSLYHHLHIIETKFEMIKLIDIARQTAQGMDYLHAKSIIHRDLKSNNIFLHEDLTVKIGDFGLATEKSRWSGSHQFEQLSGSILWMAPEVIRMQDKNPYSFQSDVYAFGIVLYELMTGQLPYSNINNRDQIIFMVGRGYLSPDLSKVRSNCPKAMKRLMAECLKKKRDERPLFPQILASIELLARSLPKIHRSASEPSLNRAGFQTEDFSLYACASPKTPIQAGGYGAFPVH
Assay: Inhibition of full-length B-Raf V600E mutant in human MALME-3M cells assessed as reduction in basal ERK1/2 phosphorylation incubated for 1 hr
Assay type: cell-based
pIC50: −log10 of the molar value.
Measurement label: pIC50

1. CCCS(=O)(=O)Nc1ccc(F)c(-c2cc3cnccc3c(=O)n2C)c1F = 6.35
2. CCCS(=O)(=O)Nc1ccc(F)c(-c2cc3cnc(NCCCO)nc3n(C)c2=O)c1F = 7.39
3. CCCS(=O)(=O)Nc1ccc(F)c(-c2cc3cnccc3n(CCc3ccccc3)c2=O)c1F = 5.93
4. CCCS(=O)(=O)Nc1ccc(F)c(-c2cc3cnc(NCCO)nc3n(C)c2=O)c1F = 7.51
5. CCCS(=O)(=O)Nc1ccc(F)c(-c2cc3cnc(N)nc3n(C)c2=O)c1F = 7.03
